# assay remarks: soluble on expression in E. coli; label from the status in PepcDB or PDB records
observable: soluble on expression in E. coli

MRVELIYDKRNVGSLANATEIIRAELTKRVHRVFPDAEVNVKAMHANGINTNASKQEKSVLNRLVEEMFDEADEWLNNEF = not soluble
MAHHHHHHMTFCGFGCVSTSEVGIIENCGKFDRTADPGCFCIVPCVESVRGVVSLKVAISTVRVETKTRDNAVVNIETRLHYKVIAECAEDAFYRFSNPSEQIASFAASVVRGEVPKYTLDELFLMSDEIKKVVSAELTEKLRGFGFSLESTLLTRIEPSASVKTAISQTQINAYRRTAAEHESELNKILAVKAAEADYEEKRLSGVGLAQERQAIMKGLKSSIESFVNAVPSMRAKDVMNLLLLNQYFDAMKEVGSGKSNKLILMPNTCGAAPNFMADLVAAQAGAARMM = not soluble
MAHRPRWTLSQVTELFEKPLLDLLFEAQQVHRQHFDPRQVQVSTLLSIKTGACPEDCKYCPQSSRYKTGLEAERLMEVEQVLESARKAKAAGSTRFCMGAAWKNPHERDMPYLEQMVQGVKAMGLEACMTLGTLSESQAQRLANAGLDYYNHNLDTSPEFYGNIITTRTYQERLDTLEKVRDAGIKVCSGGIVGLGETVKDRAGLLLQLANLPTPPESVPINMLVKVKGTPLADNDDVDAFDFIRTIAVARIMMPTSYVRLSAGREQMNEQTQAMCFMAGANSIFYGCKLLTTPNPEEDKDLQLFRKLGLNPQQTAVLAGDNEQQQRLEQALMTPDTDEYYNAAALLEHHHHHH = not soluble

Values compiled from the DeepSol protein solubility set.
